Source of measurements: patent US5300513A

target-entity: V1 receptor (Rattus norvegicus)
Construct: Using rat liver plasma membrane preparations; from tissue; host or cells: rat liver plasma membranes
Sequence (P30560 whole entry): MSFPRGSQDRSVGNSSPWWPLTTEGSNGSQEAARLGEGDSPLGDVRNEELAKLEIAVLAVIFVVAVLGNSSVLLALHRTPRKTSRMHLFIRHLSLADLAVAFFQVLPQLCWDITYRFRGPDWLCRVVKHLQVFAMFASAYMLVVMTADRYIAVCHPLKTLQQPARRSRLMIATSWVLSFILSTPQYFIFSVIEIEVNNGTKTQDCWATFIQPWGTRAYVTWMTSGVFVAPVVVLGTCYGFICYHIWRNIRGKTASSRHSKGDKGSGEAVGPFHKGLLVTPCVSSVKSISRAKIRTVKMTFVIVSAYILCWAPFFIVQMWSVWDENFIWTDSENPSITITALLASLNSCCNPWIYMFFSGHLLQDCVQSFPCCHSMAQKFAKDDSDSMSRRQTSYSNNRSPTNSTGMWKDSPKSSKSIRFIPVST
assay-procedure: V1 receptor binding assay (inhibition of [3H]-Arg-vasopressin binding to rat liver plasma membrane)
condition-set: rat liver plasma membrane; [H]^3-Arg-vasopressin 2×10^-10 M; 37° C., 10 minutes, pH 8.0; read-out: IC50
assay-metric: IC50 (nM)
Provide only the numeric value, understood in nM.

Examples with their reported IC50 follow.
CCOC(=O)CC(=O)OCCN(C)CCCCCOc1ccc(C(=O)N2CCC(N3C(=O)CCc4ccccc43)CC2)cc1 [Test Compound 5] | 110
O=C(c1ccc(OCCCCCN2CCC(NC(=O)C(F)(F)F)CC2)cc1)N1CCC(N2C(=O)CCc3ccccc32)CC1 [Test Compound 8] | 63

Now take the following compound into account.
The recorded IC50 for C=CCNCC(O)CCCCOc1ccc(C(=O)N2CCC(N3C(=O)CCc4ccccc43)CC2)cc1 (stereo not drawn) [Test Compound 6] is 140
